system: Mus musculus; assay: The biodistribution time for compound radioactivity after concomitant administration of [131 I ]L-HML-NGA and compound in mice. It is expressed as percent injected dose per neck after 3 hours; format: ADME, organism-based; conditions: in vivo
recorded.metric: Radioactivity (%)

Query: Give recorded Radioactivity. N[C@@H](CS)C(=O)SC1CC(=O)N(CCCC[C@@H](NC(=O)CNC(=O)c2cccc([125I])c2)C(=O)O)C1=O (some centres not stated)
Response: 0.04

Query: Give recorded Radioactivity. N[C@@H](CS)C(=O)SC1CC(=O)N(CCCCCNC(=O)CNC(=O)c2cccc([125I])c2)C1=O (some centres not stated)
Response: 0.04
